B1: Hairpin Ribozyme (parent)
chain: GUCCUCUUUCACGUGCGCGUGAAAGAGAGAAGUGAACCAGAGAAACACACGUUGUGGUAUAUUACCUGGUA

# Variants of: B1
# procedure_details: self-cleavage, relative activity (ratio to wild type); higher = more cleavage; co-transcriptional
endpoint: self-cleavage

[[record]]
variant_description = "G40U G57U"
readout_value = 0.153

[[record]]
variant_description = "C6U U53G"
readout_value = 0.801

[[record]]
variant_description = "G34A C66U"
readout_value = 0.609

[[record]]
variant_description = "A31C G68U"
readout_value = 0.122

[[record]]
variant_description = "G21C A59U"
readout_value = 0.204

[[record]]
variant_description = "U9G G19U"
readout_value = 0.546

[[record]]
variant_description = "A47U U67A"
readout_value = 0.103

[[record]]
variant_description = "G42A C66G"
readout_value = 0.113

[[record]]
variant_description = "C10A A31U"
readout_value = 0.112

[[record]]
variant_description = "G29C A36U"
readout_value = 0.0836

[[record]]
variant_description = "C4G G29A"
readout_value = 0.0497

